- reported.conditions: 307.15 K; 101.33 kPa; Liquid; Vibrating tube method
result.type: mass density (kg/m3)

Entry under review: CCCCC(=O)[O-].C[NH2+]CCO [2-hydroxy-N-methylethanaminium pentanoate] . Reported mass density?
1010.19

Entry under review: CC(=O)[O-].C[NH2+]CCO [N-methyl-2-hydroxyethylammonium acetate] . Reported mass density?
1095.44

Entry under review: CCC(=O)[O-].C[NH2+]CCO [2-hydroxy-N-methylethanaminium propionate] . Reported mass density?
1065.45

Entry under review: C[NH2+]CCO.O=C[O-] [2-hydroxy-N-methylethanaminium formate] . Reported mass density?
1123.22

Entry under review: CCCC(=O)[O-].C[NH2+]CCO [N-methyl-2-hydroxyethylammonium butanoate] . Reported mass density?
1033.2

Entry under review: CC(C)C(=O)[O-].C[NH2+]CCO [2-hydroxy-N-methylethanaminium isobutyrate] . Reported mass density?
1037.58

###

- reported.conditions: 330.66 K; 101.33 kPa; Liquid; Pulse-echo method
result.type: speed of sound (m/s)

Entry under review: CCCC(=O)[O-].C[NH2+]CCO [N-methyl-2-hydroxyethylammonium butanoate] . Reported speed of sound?
1512.7

Entry under review: C[NH2+]CCO.O=C[O-] [2-hydroxy-N-methylethanaminium formate] . Reported speed of sound?
1752.2

Entry under review: CCC(=O)[O-].C[NH2+]CCO [2-hydroxy-N-methylethanaminium propionate] . Reported speed of sound?
1593.3

Entry under review: CC(C)C(=O)[O-].C[NH2+]CCO [2-hydroxy-N-methylethanaminium isobutyrate] . Reported speed of sound?
1519.1

Entry under review: CCCCC(=O)[O-].C[NH2+]CCO [2-hydroxy-N-methylethanaminium pentanoate] . Reported speed of sound?
1448.5

###

- reported.conditions: 290.9 K; 101.33 kPa; Liquid; Pulse-echo method
result.type: speed of sound (m/s)

Entry under review: C[NH2+]CCO.O=C[O-] [2-hydroxy-N-methylethanaminium formate] . Reported speed of sound?
1829.5

Entry under review: CCCCC(=O)[O-].C[NH2+]CCO [2-hydroxy-N-methylethanaminium pentanoate] . Reported speed of sound?
1572

Entry under review: CCCC(=O)[O-].C[NH2+]CCO [N-methyl-2-hydroxyethylammonium butanoate] . Reported speed of sound?
1638

Entry under review: CC(C)C(=O)[O-].C[NH2+]CCO [2-hydroxy-N-methylethanaminium isobutyrate] . Reported speed of sound?
1632

Entry under review: CCC(=O)[O-].C[NH2+]CCO [2-hydroxy-N-methylethanaminium propionate] . Reported speed of sound?
1711.6

###

- reported.conditions: 314.15 K; 101.33 kPa; Liquid; Pulse-echo method
result.type: speed of sound (m/s)

Entry under review: CCC(=O)[O-].C[NH2+]CCO [2-hydroxy-N-methylethanaminium propionate] . Reported speed of sound?
1642.8

Entry under review: CCCC(=O)[O-].C[NH2+]CCO [N-methyl-2-hydroxyethylammonium butanoate] . Reported speed of sound?
1564.4

Entry under review: CC(C)C(=O)[O-].C[NH2+]CCO [2-hydroxy-N-methylethanaminium isobutyrate] . Reported speed of sound?
1566.1

Entry under review: CCCCC(=O)[O-].C[NH2+]CCO [2-hydroxy-N-methylethanaminium pentanoate] . Reported speed of sound?
1499.1

Entry under review: C[NH2+]CCO.O=C[O-] [2-hydroxy-N-methylethanaminium formate] . Reported speed of sound?
1784.1

###

- reported.conditions: 306.9 K; 101.33 kPa; Liquid; Pulse-echo method
result.type: speed of sound (m/s)

Entry under review: CCCCC(=O)[O-].C[NH2+]CCO [2-hydroxy-N-methylethanaminium pentanoate] . Reported speed of sound?
1521.5

Entry under review: CC(C)C(=O)[O-].C[NH2+]CCO [2-hydroxy-N-methylethanaminium isobutyrate] . Reported speed of sound?
1586.6

Entry under review: CCC(=O)[O-].C[NH2+]CCO [2-hydroxy-N-methylethanaminium propionate] . Reported speed of sound?
1664.2

Entry under review: C[NH2+]CCO.O=C[O-] [2-hydroxy-N-methylethanaminium formate] . Reported speed of sound?
1798.3

Entry under review: CCCC(=O)[O-].C[NH2+]CCO [N-methyl-2-hydroxyethylammonium butanoate] . Reported speed of sound?
1587

###

- reported.conditions: 312.41 K; 101.33 kPa; Liquid; Pulse-echo method
result.type: speed of sound (m/s)

Entry under review: CCCC(=O)[O-].C[NH2+]CCO [N-methyl-2-hydroxyethylammonium butanoate] . Reported speed of sound?
1569.8

Entry under review: CCC(=O)[O-].C[NH2+]CCO [2-hydroxy-N-methylethanaminium propionate] . Reported speed of sound?
1648

Entry under review: C[NH2+]CCO.O=C[O-] [2-hydroxy-N-methylethanaminium formate] . Reported speed of sound?
1787.6

Entry under review: CCCCC(=O)[O-].C[NH2+]CCO [2-hydroxy-N-methylethanaminium pentanoate] . Reported speed of sound?
1504.5

Entry under review: CC(C)C(=O)[O-].C[NH2+]CCO [2-hydroxy-N-methylethanaminium isobutyrate] . Reported speed of sound?
1571.1

###

- reported.conditions: 321.41 K; 101.33 kPa; Liquid; Vibrating tube method
result.type: mass density (kg/m3)

Entry under review: CCCC(=O)[O-].C[NH2+]CCO [N-methyl-2-hydroxyethylammonium butanoate] . Reported mass density?
1023.47

Entry under review: CC(C)C(=O)[O-].C[NH2+]CCO [2-hydroxy-N-methylethanaminium isobutyrate] . Reported mass density?
1028.2

Entry under review: CC(=O)[O-].C[NH2+]CCO [N-methyl-2-hydroxyethylammonium acetate] . Reported mass density?
1086.71

Entry under review: CCC(=O)[O-].C[NH2+]CCO [2-hydroxy-N-methylethanaminium propionate] . Reported mass density?
1056

Entry under review: C[NH2+]CCO.O=C[O-] [2-hydroxy-N-methylethanaminium formate] . Reported mass density?
1115.3

Entry under review: CCCCC(=O)[O-].C[NH2+]CCO [2-hydroxy-N-methylethanaminium pentanoate] . Reported mass density?
1000.45

###

- reported.conditions: 315.65 K; 101.33 kPa; Liquid; Pulse-echo method
result.type: speed of sound (m/s)

Entry under review: CCCCC(=O)[O-].C[NH2+]CCO [2-hydroxy-N-methylethanaminium pentanoate] . Reported speed of sound?
1494.5

Entry under review: CCC(=O)[O-].C[NH2+]CCO [2-hydroxy-N-methylethanaminium propionate] . Reported speed of sound?
1638.3

Entry under review: CC(C)C(=O)[O-].C[NH2+]CCO [2-hydroxy-N-methylethanaminium isobutyrate] . Reported speed of sound?
1561.9

Entry under review: C[NH2+]CCO.O=C[O-] [2-hydroxy-N-methylethanaminium formate] . Reported speed of sound?
1781.2

Entry under review: CCCC(=O)[O-].C[NH2+]CCO [N-methyl-2-hydroxyethylammonium butanoate] . Reported speed of sound?
1559.8

###

- reported.conditions: 301.9 K; 101.33 kPa; Liquid; Pulse-echo method
result.type: speed of sound (m/s)

Entry under review: C[NH2+]CCO.O=C[O-] [2-hydroxy-N-methylethanaminium formate] . Reported speed of sound?
1808

Entry under review: CCC(=O)[O-].C[NH2+]CCO [2-hydroxy-N-methylethanaminium propionate] . Reported speed of sound?
1678.9

Entry under review: CCCCC(=O)[O-].C[NH2+]CCO [2-hydroxy-N-methylethanaminium pentanoate] . Reported speed of sound?
1537

Entry under review: CCCC(=O)[O-].C[NH2+]CCO [N-methyl-2-hydroxyethylammonium butanoate] . Reported speed of sound?
1602.6

Entry under review: CC(C)C(=O)[O-].C[NH2+]CCO [2-hydroxy-N-methylethanaminium isobutyrate] . Reported speed of sound?
1600.7

###

- reported.conditions: 295.4 K; 101.33 kPa; Liquid; Pulse-echo method
result.type: speed of sound (m/s)

Entry under review: CCCC(=O)[O-].C[NH2+]CCO [N-methyl-2-hydroxyethylammonium butanoate] . Reported speed of sound?
1623.3

Entry under review: CCC(=O)[O-].C[NH2+]CCO [2-hydroxy-N-methylethanaminium propionate] . Reported speed of sound?
1698.2

Entry under review: C[NH2+]CCO.O=C[O-] [2-hydroxy-N-methylethanaminium formate] . Reported speed of sound?
1820.7

Entry under review: CC(C)C(=O)[O-].C[NH2+]CCO [2-hydroxy-N-methylethanaminium isobutyrate] . Reported speed of sound?
1619.1

Entry under review: CCCCC(=O)[O-].C[NH2+]CCO [2-hydroxy-N-methylethanaminium pentanoate] . Reported speed of sound?
1557.5

###

- reported.conditions: 336.66 K; 101.33 kPa; Liquid; Vibrating tube method
result.type: mass density (kg/m3)

Entry under review: CC(C)C(=O)[O-].C[NH2+]CCO [2-hydroxy-N-methylethanaminium isobutyrate] . Reported mass density?
1017.87

Entry under review: C[NH2+]CCO.O=C[O-] [2-hydroxy-N-methylethanaminium formate] . Reported mass density?
1107.16

Entry under review: CCCC(=O)[O-].C[NH2+]CCO [N-methyl-2-hydroxyethylammonium butanoate] . Reported mass density?
1012.76

Entry under review: CC(=O)[O-].C[NH2+]CCO [N-methyl-2-hydroxyethylammonium acetate] . Reported mass density?
1077.12

Entry under review: CCCCC(=O)[O-].C[NH2+]CCO [2-hydroxy-N-methylethanaminium pentanoate] . Reported mass density?
989.761

Entry under review: CCC(=O)[O-].C[NH2+]CCO [2-hydroxy-N-methylethanaminium propionate] . Reported mass density?
1045.61
